measurement-context: in THF, 318.15 K
metric-name: solubility (mole fraction)

1) CN1CCN(c2c(F)cc3c(=O)c(C(=O)O)cn4c3c2OCN4C)CC1 ... 0.001

====

measurement-context: in ethyl acetate, 318.15 K
metric-name: solubility (mole fraction)

1. CN1CCN(c2c(F)cc3c(=O)c(C(=O)O)cn4c3c2OCN4C)CC1 ... 0.000378

====

measurement-context: in toluene, 313.15 K
metric-name: solubility (mole fraction)

1. CN1CCN(c2c(F)cc3c(=O)c(C(=O)O)cn4c3c2OCN4C)CC1 ... 0.000135

====

measurement-context: in THF, 293.15 K
metric-name: solubility (mole fraction)

1. CN1CCN(c2c(F)cc3c(=O)c(C(=O)O)cn4c3c2OCN4C)CC1 ... 0.000508
